- experimentalProtocol: physchem
- Type: physicochemical
pKa listing for selected molecules.
The answer should be a number; do not append a unit.

Recorded results for 3 molecules are shown here.
>>> df
                                   molecule  resultnumber
0  CCCCC/C=C\CCOC(CCCCCCC)O[Si](C)(C)OCCCCCCN(CCCCO)CCCCCCOC(=O)C(CCCCCC)CCCCCCCC (stereo not drawn)           6.2
1  CCCCCCCCOC(CCCCCCC)O[Si](C)(C)OCCCCCCN(CCCCO)CCCCCCOC(=O)C(CCCCCCCC)SCCCCC (stereo not drawn)          6.34
2  CCCCCCCCCCSC(CCCC)C(=O)OCCCCCCN(CCCCO)CCCCCCOC(CCCCCCC)O[Si](C)(C)CCCCCCCC (stereo not drawn)          6.42

Lookup result for CCCCCCCCCCCOC(=O)CCCCCN(CCO)CCCCCCCCCC(OCCCCCCCC)O[Si](C)(C)CCCCCC (stereo not drawn) ; measured pKa: 6.4

Lookup result for CCCCCCCCCCOC(C)O[Si](C)(C)OCCCCCCN(CCCCO)CCCCCCOC(=O)C(CCCCCC)CCCCCCCC (stereo not drawn) ; measured pKa: 6.37

Lookup result for CCCCCCCCC(CCCCCC)C(=O)OCCCCCCN(CCCCO)CCCCCCCCCOC(CCCCCCC)O[Si](C)(C)CCCCCC (stereo not drawn) ; measured pKa: 6.34

Lookup result for CCCCCCCCCCCOC(=O)CCCCCN(CCCCO)CCCCCCO[Si](C)(C)OC(CCCCCCC)OCCCCCCCC (stereo not drawn) ; measured pKa: 6.38

Lookup result for CCCCCCCCCCSC(CCCC)C(=O)OCCCCCCN(CCCCO)CCCCCCO[Si](C)(C)OC(CCCCCCC)OCCCCCCCC (stereo not drawn) ; measured pKa: 6.48

Lookup result for CCCCC/C=C\C/C=C\CCCCCCCC(=O)OCCCCN(CCCCO)CCCCCCO[Si](C)(C)OC(CCCCCCC)OCCCCCCCC (stereo not drawn) ; measured pKa: 6.2

Lookup result for CC/C=C\CCCCCOC(CCCCCCC)O[Si](C)(C)OCCCCCCN(CCCCO)CCCCCCOC(=O)C(CCCCCC)CCCCCCCC (stereo not drawn) ; measured pKa: 6.35

Lookup result for CCCCCCCCCC(OCC)O[Si](C)(C)OCCCCCCN(CCCCO)CCCCCCOC(=O)C(CCCCCC)CCCCCCCC (stereo not drawn) ; measured pKa: 6.52

Lookup result for CCCCCCCCCCCOC(=O)CCCCCN(CCO)CCCCCCCCCOC(CCCCCCC)O[Si](C)(C)CCCCCC (stereo not drawn) ; measured pKa: 6.61

Lookup result for CCCCCCCCCCOC(CCC)O[Si](C)(C)OCCCCCCN(CCCCO)CCCCCCOC(=O)C(CCCCCC)CCCCCCCC (stereo not drawn) ; measured pKa: 6.47

Lookup result for CCCCCCCCOC(CCCCCCC)O[Si](C)(C)OCCCCCCN(CCCCCCOC(=O)C(CCCCCC)CCCCCCCC)CCC1CCCN1C (stereo not drawn) ; measured pKa: 6.6

Lookup result for CCCCCCCCC(CCCCCC)C(=O)OCCCCCCN(CCCCO)CCCCCCO[Si](C)(C)OC1CCCCCCCCCCCCCCO1 (stereo not drawn) ; measured pKa: 6.3
